# Tested on: human APOE RNA
# test: Duration of action study in APOE C57BL/6NTac-Apoeem7250 knock-in mice (Example 16)
# Type: in vivo
# cond: cortex; 300 μg ICV; 112 days post-dose
Strand notation (5' to 3'): a small letter for the sugar, then the base; units joined by * are phosphorothioate-linked, units joined directly phosphodiester-linked; [ ] holds rarer units or linkages, { } end groups; capitals alone tell only the bases. [PN] = cyclic guanidine phosphoramidate internucleoside linkage; [ms] = mesyl phosphoramidate linkage; e = 2'-O-(2-methoxyethyl) (MOE); k = constrained ethyl (cEt); [5mC] = 5-methylcytosine; d = 2'-deoxy (DNA)
quantity-name: APOE RNA (% control) Cortex
Write the value in % control as a bare number.

Q) Request the reported APOE RNA (% control) Cortex associated with 1746803 (k[5mC]*dT[ms]dT[ms]kG*dG[ms]kT*dG[ms]dA[ms]dA[ms]dT*d[5mC]*dT*dT*dT*dA[ms]dT*kT*dA[ms]kA*kA; antisense) [Compound 1746803]
A) 54

Q) Request the reported APOE RNA (% control) Cortex associated with 1721309: 6-10-4 MOE gapmer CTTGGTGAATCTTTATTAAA, linkages s[pn][pn][pn]oossssssssss[pn]ss (e[5mC]*eT[PN]eT[PN]eG[PN]eGeTdG*dA*dA*dT*d[5mC]*dT*dT*dT*dA*dT*eT[PN]eA*eA*eA) [compound 1721309]
A) 93

Q) Request the reported APOE RNA (% control) Cortex associated with 1746799 (k[5mC]*dT[ms]kT*dG[ms]kG*dT[ms]dG[ms]dA[ms]dA[ms]dT*d[5mC]*dT*dT*dT*dA[ms]dT*kT*dA[ms]kA*kA; antisense) [Compound 1746799]
A) 46

Q) Request the reported APOE RNA (% control) Cortex associated with 1746801 (k[5mC]*dT[ms]dT[ms]kG*kG*dT[ms]dG[ms]dA[ms]dA[ms]dT*d[5mC]*dT*dT*dT*dA[ms]dT*kT*dA[ms]kA*kA; antisense) [Compound 1746801]
A) 47

Q) Request the reported APOE RNA (% control) Cortex associated with 1721305: 6-10-4 MOE gapmer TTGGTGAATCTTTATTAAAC, linkages s[pn][pn][pn]oossssssssss[pn]ss (eT*eT[PN]eG[PN]eG[PN]eTeGdA*dA*dT*d[5mC]*dT*dT*dT*dA*dT*dT*eA[PN]eA*eA*e[5mC]) [compound 1721305]
A) 81

Q) Request the reported APOE RNA (% control) Cortex associated with 1747050 (k[5mC]*kT*kT*dG[ms]dG[ms]kT*dG[ms]dA[ms]dA[ms]dT*d[5mC]*dT*dT*dT*dA[ms]dT*kT*dA[ms]dA[ms]kA; antisense) [Compound 1747050]
A) 63

---

# Tested on: human APOE RNA
# test: Activity in APOE C57BL/6NTac-Apoeem7250 knock-in mice, single ICV bolus, 4 weeks (Example 10)
# Type: in vivo
# cond: spinal cord; single ICV bolus 300 μg; 4 weeks post treatment; normalized to mouse Ppia
Strand notation (5' to 3'): a small letter for the sugar, then the base; units joined by * are phosphorothioate-linked, units joined directly phosphodiester-linked; [ ] holds rarer units or linkages, { } end groups; capitals alone tell only the bases. [ms] = mesyl phosphoramidate linkage; e = 2'-O-(2-methoxyethyl) (MOE); k = constrained ethyl (cEt); [5mC] = 5-methylcytosine; d = 2'-deoxy (DNA)
quantity-name: APOE RNA (% control) Spinal Cord
Write the value in % control as a bare number.

1746809 (k[5mC]*dT[ms]kT*dG[ms]kG*dT[ms]dG[ms]dA[ms]dA[ms]dT*d[5mC]*dT*dT*dT*dA[ms]dT*dT[ms]kA*kA*kA; antisense) [Compound 1746809] ... 59

Q) Request the reported APOE RNA (% control) Spinal Cord associated with 1778119 (eA*e[5mC]eTeTeG*eG*dT*dG[ms]dA[ms]dA*dT*d[5mC]*dT*dT*dT*dA[ms]kTeT*eA*eA; antisense) [Compound 1778119]
A) 56

Q) Request the reported APOE RNA (% control) Spinal Cord associated with 1785601: modified oligonucleotide complementary to human APOE RNA (k[5mC]*kT*kT*dG[ms]dG[ms]dT[ms]dG*dA[ms]dA[ms]dT*d[5mC]*dT*dT*dT*dA[ms]dT*kT*kA*dA[ms]kA; antisense) [compound 1785601]
A) 40

Q) Request the reported APOE RNA (% control) Spinal Cord associated with 1746811 (k[5mC]*dT[ms]dT[ms]kG*kG*dT[ms]dG[ms]dA[ms]dA[ms]dT*d[5mC]*dT*dT*dT*dA[ms]dT*dT[ms]kA*kA*kA; antisense) [Compound 1746811]
A) 62
